test system: SNB-75; test: Growth inhibition of human SNB75 cells after 48 hrs by sulforhodamine B assay; format: functional; conditions: SNB-75, 48 h
Parameter: GI50. Scope: all listed entries.
Measured Attribute: GI50 (nM)

- Smiles Record: "COc1cc(-c2nn(-c3cccc(NC(=O)Nc4cccc(C(F)(F)F)c4)c3)cc2-c2ccncc2)ccc1Cl"
  Measured Attribute: "GI50"
  Recorded Result: 1160
- Smiles Record: "COc1cc(-c2nn(-c3cccc(NC(=O)c4ccc(Cl)c(C(F)(F)F)c4)c3)cc2-c2ccncc2)ccc1Cl"
  Measured Attribute: "GI50"
  Recorded Result: 2190
- Smiles Record: "COc1cc(-c2nn(-c3cccc(NC(=O)Nc4cc(C(F)(F)F)cc(C(F)(F)F)c4)c3)cc2-c2ccncc2)ccc1Cl"
  Measured Attribute: "GI50"
  Recorded Result: 858
- Smiles Record: "O=C(Nc1cccc(-n2cc(-c3ccncc3)c(-c3ccc(Cl)c(O)c3)n2)c1)c1ccc(N2CCOCC2)c(C(F)(F)F)c1"
  Measured Attribute: "GI50"
  Recorded Result: 1300

Measured values drawn from ChEMBL document CHEMBL2440076 for this set.
